# System: ROCK1
# Experimental Setup: concentration: 1 μM, replicates: in singlicate; n = 1;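 also: KINOMEscan kinase panel screen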

| Molecule | %Inh, % |
| --- | --- |
| COc1ccccc1-c1ccc2c(NC(=O)C3CC3)n[nH]c2n1 | 23 |
| COc1cccc(NC(=O)NC2CCN(c3ccnc(Nc4ccc(F)cc4)n3)C2)c1 (stereo not drawn) | 0 |
| Fc1cc(Cl)ccc1Nc1ccnc2cc(I)ccc12 | 2 |
| COc1cc2nccc(Nc3ccc(NC(=O)c4ccc(C)cc4)c(O)c3)c2cc1OC.Cl | 0 |
| Cn1ccc2ncnc(Oc3ccc(Nc4nc5ccccc5[nH]4)cc3)c21 | 0 |
| Cc1cccc(-c2nc(Nc3ccncc3)c3ccccc3n2)n1 | 0 |
| Fc1cccc(COc2nnc(-c3ccc4c(c3)CCO4)o2)c1 | 0 |
| Cc1cccc(-c2cc(Nc3ccncc3)c3ccccc3n2)n1 | 0 |
| Fc1cc(Cl)ccc1Nc1ccnc2cc(-c3ccc(CN4CCCCC4)o3)ccc12 | 31 |

---

# Tested on: AKT2
# Experimental Setup: concentration: 1 μM, replicates: in singlicate; n = 1

| Molecule | %Inh [%] |
| --- | --- |
| Cc1cc(-c2ccc3c(c2)CC[C@@H](N[C@@H](C)c2ccccc2)C3)cnc1N.Cl | 27 |
| COC(=O)c1c(-c2ccccc2)c2cc(C(=O)O)ccc2c(=O)n1Cc1ccccc1 | 0 |
| O=C(Nc1ccc2c(c1)OCO2)NC1CCN(c2ccnc(Nc3ccc(F)cc3)n2)C1 (stereo not drawn) | 0 |
| O=C(Nc1ccccc1)Nc1cccc(Oc2ccc3nccn3n2)c1 | 0 |
| CN1C(=O)C(Nc2ccc(Cl)c(C(=O)O)c2)=C(c2ccc(Cl)cc2)C1=O | 0 |
| CS(=O)(=O)c1ccc(-c2c(-c3ncn[nH]3)sc(N3CCOCC3)c2C#N)cc1 | 15 |

---

%Inh overview
# Test system: FGFR2
# Experimental Setup: concentration: 1 μM, replicates: in singlicate; n = 1
Result Type: %Inh (%)

| Compound | Quantity Unit | Numeric Readout |
| --- | --- | --- |
| CN(C)CCN(C)C(=O)c1cc(-c2ccncc2)c(-c2ccc(Cl)c(O)c2)o1.Cl.Cl | % | 0 |
| O=C(Nc1n[nH]c2nc(-c3nccs3)c(Br)cc12)C1CCCC1 | % | 0 |
| COc1cccc(NC(=O)NC2CCN(c3ccnc(Nc4ccc(F)cc4)n3)C2)c1 (stereo not drawn) | % | 0 |
| Cc1c(O)cccc1Nc1ccnc2ccc(C(F)(F)F)cc12.Cl | % | 0 |
| Cc1c(Cn2ccn3c(=O)cc(N4CCOCC4)nc23)cccc1C(F)(F)F | % | 19 |
| COc1ccccc1-c1ccc2c(NC(=O)C3CC3)n[nH]c2n1 | % | 12 |
| C[C@@H]1CCCCN1c1cc(-c2ccc3c(N)n[nH]c3c2)nc(N)n1 | % | 0 |
| Clc1cc(Cl)cc(Nc2ccnc(Nc3cc(Cl)cc(Cl)c3)n2)c1 | % | 50 |
| Cl.NC(=O)c1cccc(Nc2nccc(Nc3ccc(Oc4cccc(Cl)c4)c(Cl)c3)n2)c1 | % | 0 |
| Cc1cccc(-c2nc(-c3ccc(S(C)(=O)=O)cc3)sc2-c2ccnc(NCCc3ccccc3)c2)c1 | % | 1 |
| COc1ccccc1CNC(=O)c1cc(C(=O)c2ccccc2C)c[nH]1 | % | 16 |
| CCn1c(-c2ccccn2)nc2cnccc21 | % | 48 |
| Cc1ccc(NC(=O)Nc2cccc(Cl)c2)cc1-c1ccc(C(=O)Nc2ccncc2)cc1 | % | 0 |
| O=C(O)COc1ncnc2cc(-c3ccc4[nH]ncc4c3)sc12 | % | 1 |
| Cc1ccccc1-n1cnc2c(N)ncnc21 | % | 0 |
| COc1ccc(C2=C(Nc3cccc(C(=O)O)c3)C(=O)NC2=O)cc1 | % | 13 |
| Cc1ccc(NC(=O)Nc2cc(C(C)(C)C)nn2-c2ccccc2)cc1 | % | 25 |
| Cn1ccc2ncnc(Oc3ccc(Nc4nc5ccccc5[nH]4)cc3)c21 | % | 0 |
| COc1cc2ncnc(Nc3ccc4nc(-c5ccccc5)[nH]c4c3)c2cc1OC.Cl | % | 0 |
| COc1cccc(-c2cc(-c3c[nH]nc3-c3ccccn3)ccn2)c1 | % | 0 |
| O=C(Nc1ccc2c(c1)OCO2)NC1CCN(c2ccnc(Nc3ccc(F)cc3)n2)C1 (stereo not drawn) | % | 0 |
| Cc1cccc(-c2nc(Nc3cccc(C(N)=O)c3)c3ccccc3n2)n1 | % | 17 |
| CCn1c(-c2cccnc2O)nc2cnccc21 | % | 0 |
| Fc1cc(Cl)ccc1Nc1ccnc2cc(-c3ccc(CN4CCCCC4)o3)ccc12 | % | 0 |
| CC(C)(C)c1ccc(C(=O)Nc2cn3cc(Cl)ccc3n2)cc1 | % | 0 |
| Cc1ccc(-c2cc(-c3c[nH]nc3-c3ccccn3)ccn2)cc1 | % | 0 |
| Cl.Oc1ccc(-c2nc(-c3ccccc3)[nH]c2-c2ccncc2)cc1 | % | 4 |
| Fc1cccc(COc2nnc(-c3ccc4c(c3)CCO4)o2)c1 | % | 0 |
| Cc1cccc(-c2nc(Nc3ccncc3)c3ccccc3n2)n1 | % | 7 |
| Cc1ccc(C(=O)Nc2ccc(Nc3ccnc4cc(-c5ccccn5)ccc34)cc2O)cc1.Cl | % | 0 |
| CC(=O)Nc1nc2cnc(Nc3cc(NC(=O)c4cccc(CCC#N)c4)ccc3C)nc2s1 | % | 22 |
| CS(=O)(=O)c1ccc(-c2c(-c3ncn[nH]3)sc(N3CCOCC3)c2C#N)cc1 | % | 9 |
| NC(=O)c1nnc2ccccc2c1N | % | 7 |
| O=C1NC(=O)C(N2CCc3ccccc32)=C1c1ccccc1Cl | % | 15 |
| CCCc1ccc(S(=O)(=O)NC2CCN(c3ccnc(Nc4ccc(F)cc4)n3)C2)cc1 (stereo not drawn) | % | 0 |
| Cc1cc(NCC(c2ccccc2)c2ccccc2)nc(NCc2ccc(C(F)(F)F)cc2)n1 | % | 0 |
| Nc1nc(-c2nccs2)c(-c2ccnc3ccccc23)s1 | % | 0 |
| COC(=O)c1c(-c2ccccc2)c2cc(OC)ccc2c(=O)n1Cc1ccccc1 | % | 3 |
| Cc1nnc(-c2ccc3occ(-c4ccc(S(C)=O)cc4)c3c2)[nH]1 (stereo not drawn) | % | 0 |
